This listing pairs binders with measured gCy5 Geo Mean Pos Cells.
Biological target: T1, human urokinase-type plasminogen activator receptor (uPAR, CD87), cell-bound (human, UniProt Q03405 23-305)
T1 construct: whole, on cells; On B300.19 or L929 transfectants (full length cDNA), or native on U937 and PC-3 cells
T1 sequence (Q03405 23-305): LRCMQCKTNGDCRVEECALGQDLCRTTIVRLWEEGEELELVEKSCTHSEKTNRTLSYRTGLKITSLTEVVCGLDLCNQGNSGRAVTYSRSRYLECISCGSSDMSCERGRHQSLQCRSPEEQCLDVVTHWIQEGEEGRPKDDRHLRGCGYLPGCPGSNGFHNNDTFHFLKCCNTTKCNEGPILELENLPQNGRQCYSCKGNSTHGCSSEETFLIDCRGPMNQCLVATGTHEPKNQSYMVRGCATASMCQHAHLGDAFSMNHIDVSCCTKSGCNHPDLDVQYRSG
Assay: FACS, B300.19 cells expressing human uPAR, anti-human gamma Cy5

Worked set:
fully human monoclonal antibody 2.6.1 (ATCC Accession Number PTA-7475) (antibody, V domains shown, also called mAb 2.6.1) VH: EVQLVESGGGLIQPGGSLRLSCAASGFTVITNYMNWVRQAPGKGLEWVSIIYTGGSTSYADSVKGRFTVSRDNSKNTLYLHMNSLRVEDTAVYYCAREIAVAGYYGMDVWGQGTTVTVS VL: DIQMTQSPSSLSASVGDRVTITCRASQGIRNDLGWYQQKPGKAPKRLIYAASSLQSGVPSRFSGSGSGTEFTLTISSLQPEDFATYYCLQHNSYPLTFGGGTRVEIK = 455
anti-uPAR monoclonal antibody 3.8.3 (antibody, V domains shown) VH: EVQLVESGGGLVQPGGSLRLSCAASGFTFSSYWMSWVRQAPGKGLEWVANIKQHGSEKYYVDSVKGRFTISRDNAKNSLYLQMNSLRAEDTAVYYCAREEAYYYDNSGYYWYFDLWARGTLVTVSS VL: DIQMTQSPSSVSASIGDRVTITCRASQGISSWLAWYQQKPGKTPKLLIYAASSLQSGVPSRFSGSGSGTDFTLTISSLQPEDFATYYCQQADSFPWTFGQGTKVEIK = 451

Moving on to the next binder.
What the record says about anti-uPAR monoclonal antibody 1.113.2 (antibody, V domains shown) VH: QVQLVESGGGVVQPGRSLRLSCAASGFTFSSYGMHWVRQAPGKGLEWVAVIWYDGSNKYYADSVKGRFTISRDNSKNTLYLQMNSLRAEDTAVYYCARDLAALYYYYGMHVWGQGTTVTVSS VL: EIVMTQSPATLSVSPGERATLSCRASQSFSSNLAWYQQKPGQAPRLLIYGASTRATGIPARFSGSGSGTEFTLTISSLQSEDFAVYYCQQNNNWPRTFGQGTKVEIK : gCy5 Geo Mean Pos Cells is 511
